The values you see were collected from patent US20160257697A1.

Test system: HCV replicon 1AY93H
Assay: microbe, parasite or virus in culture
Assay type: cell-based, Hepatitis C virus (HCV)
Conditions: read-out: 1A Y93H IC50; HCV replicon 1A Y93H; Replicon Assay A
pIC50 values for the compounds below.
The read-out pIC50 is expressed as -log10 of concentration in moles per litre.

compound	value
COC(=O)N[C@H](C(=O)N1CCC[C@H]1c1ncc(-c2cc(C)c3c(c2)OC(c2cc4c(s2)CCC4)n2c-3cc3cc(-c4cnc([C@@H]5CCCN5C(=O)[C@@H](NC(=O)OC)C5C[C@@H](C)O[C@@H](C)C5)[nH]4)ccc32)[nH]1)C(C)C (single isomer, unassigned) [Compound 548]	10.18
CCc1ccc(C2Oc3cc(-c4cnc([C@@H]5CCCN5C(=O)[C@@H](NC(=O)OC)C(C)C)[nH]4)ccc3-c3c(F)c4cc(-c5cnc([C@@H]6CCCN6C(=O)[C@@H](NC(=O)OC)C(C)C)[nH]5)ccc4n32)s1 (single isomer, unassigned) [Compound 601]	8.40

INPUT: Retrieve pIC50 measured for COC(=O)N[C@H](C(=O)N1CCC[C@H]1c1ncc(-c2cc(C)c3c(c2)OC(c2ccc(C4CC4)s2)n2c-3cc3cc(-c4cnc([C@@H]5C[C@H]6C[C@H]6N5C(=O)[C@@H](NC(=O)OC)C(C)C)[nH]4)ccc32)[nH]1)C(C)C (single isomer, unassigned) [Compound 756] and print it.
OUTPUT: 9.19

INPUT: Retrieve pIC50 measured for COC(=O)NC(C(=O)N1CCC[C@H]1c1ncc(-c2ccc3c(c2)cc2n3C(c3ccc(CC4CC4)s3)Oc3cc(-c4cnc([C@@H]5CCCN5C(=O)[C@@H](NC(=O)OC)C(C)C)[nH]4)cc(F)c3-2)[nH]1)C1CCOC(C)(C)C1 (single isomer, unassigned) [Compound 410] and print it.
OUTPUT: 11.47

###

IC50 values for the compounds below.
System: HCV replicon 1A
Assay: microbe, parasite or virus in culture
Type: cell-based, Hepatitis C virus (HCV)
Details: HCV replicon 1A; Replicon Assay A
# number only, unit nM dropped from output

// solved cases for IC50 follow
compound	value
COC(=O)N[C@H](C(=O)N1C[C@H](F)C[C@H]1c1nc(-c2ccc3c(c2)OC(c2ccc(C)s2)n2c-3cc3cc(-c4c[nH]c([C@@H]5C[C@H]6C[C@H]6N5C(=O)[C@@H](NC(=O)OC)C5CCOCC5)n4)ccc32)c[nH]1)C1CCOCC1 (single isomer, unassigned) [Compound 729]	0.028
COC(=O)NC(C(=O)N1[C@@H]2C[C@@H]2C[C@H]1c1ncc(-c2ccc3c(c2)cc2n3C(c3ccc(C(F)F)s3)Oc3cc(-c4cnc([C@@H]5CCCN5C(=O)[C@@H](NC(=O)OC)C(C)C)[nH]4)cc(F)c3-2)[nH]1)C1CCOC(C)(C)C1 (single isomer, unassigned)	0.0023

INPUT: Retrieve IC50 measured for COC(=O)N[C@H](C(=O)N1CCC[C@H]1c1ncc(-c2cc(C)c3c(c2)OC(c2ccc(C4CC4)s2)n2c-3cc3cc(-c4cnc([C@@H]5C[C@H]6C[C@H]6N5C(=O)[C@@H](NC(=O)OC)C5CCOCC5)[nH]4)ccc32)[nH]1)C(C)C (single isomer, unassigned) [Compound 764] and print it.
OUTPUT: 0.0036

INPUT: Retrieve IC50 measured for COC(=O)N[C@H](C(=O)N1CCC[C@H]1c1ncc(-c2ccc3c(c2)OC(c2cc(C)c(C)s2)n2c-3cc3cc(-c4cnc([C@@H]5C[C@H]6C[C@H]6N5C(=O)[C@@H](NC(=O)OC)C(C)C)[nH]4)ccc32)[nH]1)C(C)C (single isomer, unassigned) [Compound 503] and print it.
OUTPUT: 0.0676
